B1: RNF115 peptide 67-82 (E3 ubiquitin-protein ligase RNF115), 16-mer library wild type / MDM2 SWIB (MDM2 SWIB/MDM2 domain, residues 17-125) (parent)
chain 1: TTTHFAELWGHLDHTM
chain 2: SQIPASEQETLVRPKPLLLKLLKSVGAQKDTYTMKEVLFYLGQYIMTKRLYDEKQQHIVYCSNDLLGDLFGVPSFSVKEHRKIYTMIYRNLVVVNQQESSDSGTSVSEN

variants of: B1; test: proteomic peptide phage display deep mutational scan (ProP-PD DMS): M13 P8 16-mer library selected against immobilised GST-tagged bait for four days (rounds), NGS of the eluted pools per day and pseudo-replica; conditions: with MDM2 SWIB (MDM2 SWIB/MDM2 domain, residues 17-125); bait immobilised on MaxiSorp plates (10 µg), library pre-cleared on GST, 2 h binding at 4 °C, five washes; one round per day, days 1-4; value from days 2 and 3; keep out of graded; scale: average fractional NGS count over selection days 2 and 3
Kindly supply the reported screen value values for the records listed here.
Numbers only.

Study these solved cases before continuing.
chain 1 M16S = 0.000115
chain 1 A6T = 0.00014
chain 1 W9K = 4.89e-05
chain 1 L8S = 0
chain 1 W9L = 0
chain 1 L12V = 1.9e-05
chain 1 F5R = 0
chain 1 T15K = 2.45e-05

Record screen value per entry; entries follow.
1. chain 1 T15N
2. chain 1 W9A
3. chain 1 G10V
4. chain 1 L8Q

1: 4.79e-05; 2: 0; 3: 7.22e-05; 4: 0

Record screen value per entry; entries follow.
1. chain 1 D13K
2. chain 1 M16R
3. chain 1 E7W
4. chain 1 H14K
5. chain 1 W9Y
6. chain 1 L8A
7. chain 1 M16G
8. chain 1 G10F

1: 0; 2: 0.000117; 3: 5.37e-05; 4: 0.000119; 5: 0; 6: 0; 7: 4.72e-05; 8: 3.49e-05

Record screen value per entry; entries follow.
1. chain 1 W9T
2. chain 1 F5N

1. 7.05e-05
2. 0
